- Tested on: MCF7
- run description: Breast Cancer Cell Proliferation Assay (MCF-7), Cell Titer-Glo
- Type: cell-based
- conditions: Homo sapiens, MCF7, 120 h, MCF7 cells, 5 days of compound exposure
pIC50: −log10 of the molar value.
reported metric: pIC50

molecule=C[C@@H]1Cc2c([nH]c3ccccc23)[C@@H](c2ncc(OC3CN(CCCF)C3)cc2F)N1C12CC(C1)C2 reported_value="≥ 7.60"
molecule=CCCN1CC(Nc2ccc([C@@H]3c4[nH]c5ccccc5c4C[C@@H](C)N3C34CC(C3)C4)cn2)C1 reported_value="≤ 6.60"
molecule="C[C@H]1Cc2c([nH]c3ccccc23)[C@H](c2c(F)cc(NC3CN(CCCF)C3)cc2F)N1C12CC(CO)(C1)C2 (single isomer, unassigned)" reported_value="≤ 6.60"

###

- run description: Pharmacokinetic Determination (Mouse PK)
- Assay type: in vivo, female CD-1 mice
- conditions: female, CD-1, plasma, PO, 10.0 mg/kg
reported metric: Cmax (nM)

compound=C[C@@H]1Cc2c([nH]c3ccccc23)[C@@H](c2ccc(NC3CN(CCCF)C3)cn2)N1C12CC(C1)C2 reported_metric=Cmax reported_value=358
compound=CCCN1CC(Nc2ccc([C@@H]3c4[nH]c5ccccc5c4C[C@@H](C)N3C34CC(C3)C4)cc2)C1 reported_metric=Cmax reported_value=240
compound=C[C@@H]1Cc2c([nH]c3ccccc23)[C@@H](c2ccc(N[C@H]3CCN(CCCF)C3)cc2)N1C12CC(C1)C2 reported_metric=Cmax reported_value=220
compound="C[C@@H]1Cc2c([nH]c3ccccc23)[C@@H](c2ccc(NC3CN(CCCF)C3)cc2)N1C12CC(CO)(C1)C2 (single isomer, unassigned)" reported_metric=Cmax reported_value=80
compound=C[C@@H]1Cc2c([nH]c3ccccc23)[C@@H](c2cnc(NC3CN(CCCF)C3)cn2)N1C12CC(C1)C2 reported_metric=Cmax reported_value=590
compound=C[C@@H]1Cc2c([nH]c3ccccc23)[C@@H](c2ccc(NC3CN(CCCF)C3)cc2)N1C12CC(C1)C2 reported_metric=Cmax reported_value=261
compound=C[C@@H]1Cc2c([nH]c3ccccc23)[C@@H](c2ccc(NC3CN(CCCF)C3)cc2F)N1C12CC(C1)C2 reported_metric=Cmax reported_value=200

###

- Test system: MCF7
- run description: Breast Cancer Cell Proliferation Assay (MCF-7), Cell Titer-Glo
- Format: cell-based
- conditions: Homo sapiens, MCF7, 120 h, MCF7 cells, 5 days of compound exposure
Measured IC50 values are reported for all entries that follow.
reported metric: IC50

molecule=C[C@@H]1Cc2c([nH]c3ccccc23)[C@@H](c2ccc(OC3CN(C4CC4)C3)cc2)N1C12CC(C1)C2 assayed_target=MCF7 reported_value="≤ 25 nM"
molecule="C[C@@H]1Cc2c([nH]c3ccccc23)[C@@H](c2c(F)cc(NC3CN(CCCF)C3)cc2F)N1CC(F)(F)CO [GDC9545, reference compound]" assayed_target=MCF7 reported_value="≤ 25 nM"
molecule=C[C@@H]1Cc2c([nH]c3ccccc23)[C@@H](c2ccc(N[C@@H]3CN(CCCF)C[C@@H]3O)cc2)N1C12CC(C1)C2 assayed_target=MCF7 reported_value="≤ 25 nM"

###

- run description: Plasma and tumor PK analysis post final dosing in MCF-7 orthotopic model
- Format: in vivo, mouse
- conditions: mouse, plasma; MCF-7 orthotopic model mice, post final dosing, 0.25-24 h
reported metric: AUC (ng·h/mL)

compound="C[C@@H]1Cc2c([nH]c3ccccc23)[C@@H](c2c(F)cc(NC3CN(CCCF)C3)cc2F)N1CC(F)(F)CO [GDC9545, reference compound]" reported_metric=AUC reported_value=10500
compound=C[C@@H]1Cc2c([nH]c3ccccc23)[C@@H](c2ccc(N[C@H]3CCN(CCCF)C3)cc2)N1C12CC(C1)C2 reported_metric=AUC reported_value=5310
compound=CCCN1CC(Nc2ccc([C@@H]3c4[nH]c5ccccc5c4C[C@@H](C)N3C34CC(C3)C4)cc2)C1 reported_metric=AUC reported_value=6780
